Some compounds, each annotated with its measured pIC50.
# study-target: PKBα (Homo sapiens)
# Sequence (P31749 118-480 limits assumed): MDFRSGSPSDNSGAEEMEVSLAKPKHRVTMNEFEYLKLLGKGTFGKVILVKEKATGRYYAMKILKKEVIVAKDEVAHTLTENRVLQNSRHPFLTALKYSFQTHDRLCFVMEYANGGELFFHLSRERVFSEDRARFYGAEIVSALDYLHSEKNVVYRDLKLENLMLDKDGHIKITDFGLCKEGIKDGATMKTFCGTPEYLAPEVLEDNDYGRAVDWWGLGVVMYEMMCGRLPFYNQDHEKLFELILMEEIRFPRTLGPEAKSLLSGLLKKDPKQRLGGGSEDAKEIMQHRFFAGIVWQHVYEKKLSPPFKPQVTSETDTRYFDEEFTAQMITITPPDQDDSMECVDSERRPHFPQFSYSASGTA
# assay-comment: PKB kinase assay (P33-labeled ATP, peptide substrate, filter plate)
# test-parameters: PKBα enzyme (full length or kinase domain with pleckstrin domain deleted)
pIC50: −log10 of the molar value.

{"compound": "N[C@H](CNc1nc(-c2ccccc2F)c(-c2ccc3cnccc3c2)s1)Cc1ccc(C(F)(F)F)cc1", "pIC50": "> 7.30"}
{"compound": "COCc1nc(N(C[C@@H](N)Cc2ccc(C(F)(F)F)cc2)C(C)=O)sc1-c1nc2ccncc2s1", "pIC50": "5.00 to 6.00"}

For the compound CC(O)C#Cc1nc(NC[C@@H](N)Cc2ccc(C(F)(F)F)cc2)sc1-c1ccc2cnccc2c1 (stereo partly shown) , give its reported pIC50. > 7.30

For the compound N[C@H](CNc1ncc(-c2ccc3c(c2)CC(=O)N3)s1)Cc1cccc(C(F)(F)F)c1 , give its reported pIC50. 6.00 to 7.30

For the compound N[C@H](CNc1ncc(-c2ccc3c(c2)CC(=O)N3)s1)Cc1cc(F)cc(F)c1 , give its reported pIC50. 5.00 to 6.00

For the compound CCOCc1nc(NC[C@@H](N)Cc2ccc(Cl)cc2)sc1-c1nc2ccncc2s1 , give its reported pIC50. 6.00 to 7.30

For the compound N[C@H](CNc1ncc(-c2ccc3cnccc3c2)s1)Cc1ccc2ccccc2c1 , give its reported pIC50. > 7.30

For the compound N[C@H](CNc1ncc(-c2ccc3cncnc3c2)s1)Cc1ccc(C(F)(F)F)cc1 , give its reported pIC50. > 7.30

For the compound N[C@H](CNc1nc(C(F)(F)CO)c(-c2ccc3cnccc3c2)s1)Cc1ccc(C(F)(F)F)cc1 , give its reported pIC50. 6.00 to 7.30

For the compound N[C@H](CNc1ncc(-c2ccc3c(c2)CCC(=O)N3)s1)Cc1ccc(C(F)(F)F)cc1 , give its reported pIC50. 5.00 to 6.00

For the compound N[C@H](CNc1ncc(-c2cc(F)c3c(c2)CC(=O)N3)s1)Cc1ccc(C(F)(F)F)nc1 , give its reported pIC50. > 7.30

For the compound C[C@H](Nc1ncc(-c2ccc3cnccc3c2)s1)[C@@H](N)Cc1ccc(C(F)(F)F)cc1 , give its reported pIC50. 6.00 to 7.30

For the compound N[C@H](CNc1nc(C#CCO)c(-c2ccc3cnccc3c2)s1)Cc1ccc(C(F)(F)F)cc1 , give its reported pIC50. > 7.30

For the compound CC(C)(C)C(=O)OC[C@@H](c1ccc(C(F)(F)F)cc1)[C@H](N)CNc1ncc(-c2ccc3c(c2)CC(=O)N3)s1 , give its reported pIC50. 6.00 to 7.30

For the compound N[C@H](CNc1nc(-c2ccccn2)c(-c2nc3ccncc3s2)s1)Cc1ccc(C(F)(F)F)cc1 , give its reported pIC50. 5.00 to 6.00

For the compound NC(CNc1nc(Cl)c(-c2ccc3cnccc3c2)s1)Cc1ccc(C(F)(F)F)cc1 (stereo not shown) , give its reported pIC50. 6.00 to 7.30
